- assay.system: soluble guanylate cyclase (sGC) (Homo sapiens, UniProt Q02108+Q02153)
- Construct: endogenously expressing soluble guanylate cyclase (sGC); endogenous in cells; host or cells: HEK293
- method: sGC-HEK-cGMP assay with LC/MS detection
- Type: cell-based
- particulars: HEK293 whole cells, LC/MS detection of cGMP, 10 μM DETA-NONOate; 50% of high control response (30 μM Compound Y); read-out: Absolute EC50 (nM)- binned (~)
parameter.measured: EC50

Worked set:
COC1=CC(=O)N(c2nc(-c3cc(-c4ccon4)n(Cc4ccccc4F)n3)ncc2F)C1 ... > 1000 nM
Oc1nnc2n1CCN(c1nc(-c3cc(-c4ccon4)n(Cc4ccccc4F)n3)ncc1F)C2 ... < 100 nM

Task item: Dear colleague, I am looking for the recorded EC50 of the following compound: OCC(O)CNc1cnc(-c2cc(-c3ccon3)n(Cc3ccccc3F)n2)nc1 (stereo not shown)
Reply: > 1000 nM

Task item: Now give it for C[C@@](CNc1nc(-c2cc(-c3ccon3)n(Cc3ccccc3F)n2)ncc1F)(NC(CO)c1ccccc1)C(F)(F)F (stereo partly shown) too.
Reply: 100 to 1000 nM

###

- assay.system: soluble guanylate cyclase (sGC) (Homo sapiens, UniProt Q02108+Q02153)
- Construct: endogenously expressing soluble guanylate cyclase (sGC); endogenous in cells; host or cells: HEK293
- method: sGC-HEK-cGMP assay with LC/MS detection
- Assay type: cell-based
- particulars: HEK293 whole cells, LC/MS detection of cGMP, 10 μM DETA-NONOate; 50% of high control response (30 μM Compound Y); read-out: Absolute EC50 (nM)- binned (~)
Catalogue of EC50 readings, one per entry.

Task item: Data request, read-out EC50, for CC(=O)c1cc(-c2ncc(F)c(N[C@@H]3CCCC[C@H]3C(=O)O)n2)nn1Cc1ccccc1F [Compound 137]
Reply: 100 to 1000 nM

###

- assay.system: soluble guanylate cyclase (sGC) (Homo sapiens, UniProt Q02108+Q02153)
- Construct: endogenously expressing soluble guanylate cyclase (sGC); endogenous in cells; host or cells: HEK293
- Sequence (Q02153 1-619): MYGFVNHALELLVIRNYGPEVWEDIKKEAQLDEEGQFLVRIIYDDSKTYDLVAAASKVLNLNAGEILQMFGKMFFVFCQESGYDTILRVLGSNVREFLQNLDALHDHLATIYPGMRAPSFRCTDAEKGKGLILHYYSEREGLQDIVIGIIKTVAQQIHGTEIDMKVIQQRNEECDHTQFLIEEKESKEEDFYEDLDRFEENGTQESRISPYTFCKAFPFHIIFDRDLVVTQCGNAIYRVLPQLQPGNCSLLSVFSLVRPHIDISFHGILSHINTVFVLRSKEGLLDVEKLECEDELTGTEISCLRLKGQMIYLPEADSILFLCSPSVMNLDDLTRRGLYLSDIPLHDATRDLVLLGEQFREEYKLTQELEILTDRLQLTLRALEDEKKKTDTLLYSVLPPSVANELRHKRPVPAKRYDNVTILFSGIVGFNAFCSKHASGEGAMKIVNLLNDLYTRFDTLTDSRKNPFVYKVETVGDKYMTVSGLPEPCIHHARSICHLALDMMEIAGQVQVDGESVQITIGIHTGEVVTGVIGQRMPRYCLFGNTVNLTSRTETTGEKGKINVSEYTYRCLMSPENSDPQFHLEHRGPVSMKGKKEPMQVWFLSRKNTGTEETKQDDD
- Sequence (Q02108 1-690): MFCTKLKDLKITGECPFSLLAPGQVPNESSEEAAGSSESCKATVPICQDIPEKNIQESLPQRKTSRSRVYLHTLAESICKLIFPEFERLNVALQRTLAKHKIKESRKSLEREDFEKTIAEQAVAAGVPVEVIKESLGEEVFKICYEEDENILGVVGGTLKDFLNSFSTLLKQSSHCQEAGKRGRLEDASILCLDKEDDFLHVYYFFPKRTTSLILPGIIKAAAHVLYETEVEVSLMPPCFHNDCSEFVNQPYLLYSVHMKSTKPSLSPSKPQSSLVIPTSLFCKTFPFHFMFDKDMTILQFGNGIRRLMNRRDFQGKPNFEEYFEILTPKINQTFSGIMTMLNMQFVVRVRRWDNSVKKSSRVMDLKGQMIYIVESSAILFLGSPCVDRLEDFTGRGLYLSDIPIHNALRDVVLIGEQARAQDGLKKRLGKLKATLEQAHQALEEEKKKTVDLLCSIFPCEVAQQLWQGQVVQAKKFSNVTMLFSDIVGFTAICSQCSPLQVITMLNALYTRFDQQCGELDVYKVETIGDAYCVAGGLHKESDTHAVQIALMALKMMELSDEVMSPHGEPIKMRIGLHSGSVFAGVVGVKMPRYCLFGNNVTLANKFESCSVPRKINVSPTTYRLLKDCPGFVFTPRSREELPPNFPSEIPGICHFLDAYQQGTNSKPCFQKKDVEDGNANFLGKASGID
- method: sGC-HEK-cGMP assay with LC/MS detection
- Type: cell-based
- particulars: HEK293 whole cells, LC/MS detection of cGMP, 10 μM DETA-NONOate; 50% of high control response (30 μM Compound Y); read-out: Absolute EC50 (nM)- binned (~)
Each entry below carries its recorded EC50.

COC1CCN(c2nc(-c3cc(C(C)=O)n(Cc4ccccc4F)n3)ncc2F)C1 (stereo not drawn) [Compound 80] ... 100 to 1000 nM
O=S(=O)(Nc1ccc(CNc2nc(-c3cc(-c4ccon4)n(Cc4ccccc4F)n3)ncc2F)cc1O)C1CC1 [Compound 160] ... 100 to 1000 nM
CC(=O)c1cc(-c2ncc(F)c(N3CCS(=O)(=O)CC3)n2)nn1Cc1ccccc1F [Compound 78] ... > 1000 nM

Task item: What measured EC50 goes with CC(=O)c1cc(-c2ncc(F)c(NCC(=O)O)n2)nn1Cc1ccccc1F [Compound 86] ?
Reply: > 1000 nM

Task item: Next entry: O=C(CN1CCCCC1)OCCNc1nc(-c2cc(-c3ccon3)n(Cc3ccccc3F)n2)ncc1F [Compound 200]
Reply: > 1000 nM

###

Overview of recorded EC50 for various molecules
- assay.system: soluble guanylate cyclase (sGC) (Homo sapiens, UniProt Q02108+Q02153)
- Construct: endogenously expressing soluble guanylate cyclase (sGC); endogenous in cells; host or cells: HEK293
- method: sGC-HEK-cGMP assay with LC/MS detection
- Assay type: cell-based
- particulars: HEK293 whole cells, LC/MS detection of cGMP, 10 μM DETA-NONOate; 50% of high control response (30 μM Compound Y); read-out: Absolute EC50 (nM)- binned (~)

CC(=O)c1cc(-c2ncc(F)c(N(C)C[C@@H](C(=O)O)C(C)C)n2)nn1Cc1ccccc1F ... > 1000 nM
CC(=O)c1cc(-c2ncc(F)c(N3CCC(C)(C(=O)O)CC3)n2)nn1Cc1ccccc1F ... 100 to 1000 nM
C[C@@](CNc1nc(-c2cc(-c3ccon3)n(Cc3ccccc3F)n2)ncc1F)(N[C@@H](CO)c1ccccc1)C(F)(F)F ... < 100 nM

Task item: Any idea what EC50 was measured for CNc1cc(-c2ncc(F)c(O)n2)nn1Cc1ccccc1F ?
Reply: > 1000 nM

Task item: Record: CC(=O)c1cc(-c2ncc(F)c(N)n2)nn1Cc1ccccc1F
Reply: > 1000 nM

###

- assay.system: soluble guanylate cyclase (sGC) (Homo sapiens, UniProt Q02108+Q02153)
- Construct: endogenously expressing soluble guanylate cyclase (sGC); endogenous in cells; host or cells: HEK293
- Sequence (Q02153 1-619): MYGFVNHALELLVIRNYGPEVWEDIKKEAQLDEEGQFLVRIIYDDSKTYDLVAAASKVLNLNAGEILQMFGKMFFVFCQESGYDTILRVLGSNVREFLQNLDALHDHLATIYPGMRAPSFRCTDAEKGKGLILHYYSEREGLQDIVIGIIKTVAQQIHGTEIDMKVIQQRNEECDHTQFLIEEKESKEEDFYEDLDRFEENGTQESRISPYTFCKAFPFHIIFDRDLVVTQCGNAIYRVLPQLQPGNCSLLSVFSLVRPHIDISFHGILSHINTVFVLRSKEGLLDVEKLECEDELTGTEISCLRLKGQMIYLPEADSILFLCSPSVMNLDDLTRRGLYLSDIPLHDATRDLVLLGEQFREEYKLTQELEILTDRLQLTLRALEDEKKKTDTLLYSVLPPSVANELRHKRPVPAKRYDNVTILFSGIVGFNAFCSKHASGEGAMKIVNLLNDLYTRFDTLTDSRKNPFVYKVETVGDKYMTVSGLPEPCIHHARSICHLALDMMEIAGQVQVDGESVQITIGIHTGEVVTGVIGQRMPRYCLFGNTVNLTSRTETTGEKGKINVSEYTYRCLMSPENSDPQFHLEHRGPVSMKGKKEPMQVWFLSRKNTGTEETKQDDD
- Sequence (Q02108 1-690): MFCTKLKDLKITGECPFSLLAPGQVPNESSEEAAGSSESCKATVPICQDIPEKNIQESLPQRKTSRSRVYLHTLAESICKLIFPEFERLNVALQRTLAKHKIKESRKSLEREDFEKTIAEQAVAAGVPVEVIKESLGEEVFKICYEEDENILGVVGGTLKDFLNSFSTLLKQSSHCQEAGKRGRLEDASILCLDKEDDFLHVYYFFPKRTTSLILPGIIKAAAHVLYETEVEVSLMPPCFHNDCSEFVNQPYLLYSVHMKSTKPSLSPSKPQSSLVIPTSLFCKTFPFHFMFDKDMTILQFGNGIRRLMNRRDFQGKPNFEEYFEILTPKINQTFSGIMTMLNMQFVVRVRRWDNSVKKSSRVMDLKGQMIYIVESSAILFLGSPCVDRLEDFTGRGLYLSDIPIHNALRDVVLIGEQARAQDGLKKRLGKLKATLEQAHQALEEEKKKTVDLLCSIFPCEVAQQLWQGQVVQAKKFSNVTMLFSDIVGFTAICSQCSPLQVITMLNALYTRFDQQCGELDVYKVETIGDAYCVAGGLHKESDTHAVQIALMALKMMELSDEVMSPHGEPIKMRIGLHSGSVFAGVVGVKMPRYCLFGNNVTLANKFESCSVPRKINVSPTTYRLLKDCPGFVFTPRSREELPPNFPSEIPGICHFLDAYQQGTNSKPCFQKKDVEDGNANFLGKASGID
- method: sGC-HEK-cGMP assay with LC/MS detection
- Format: cell-based
- particulars: HEK293 whole cells, LC/MS detection of cGMP, 10 μM DETA-NONOate; 50% of high control response (30 μM Compound Y); read-out: Absolute EC50 (nM)- binned (~)
parameter.measured: EC50

Task item: What measured EC50 goes with O=C(CCl)NCC(=O)Nc1ccnc(-c2cc(-c3ccon3)n(Cc3ccccc3F)n2)n1 [Compound 32] ?
Reply: 100 to 1000 nM

Task item: Next molecule up: CC(=O)c1cc(-c2ncc(F)c(N3CC(C(=O)O)C(C)(C)C3)n2)nn1Cc1ccccc1F (stereo not shown) [Compound 136]
Reply: 100 to 1000 nM

Task item: // same read-out, input: CC(=O)c1cc(-c2ncc(F)c(O)n2)nn1Cc1cccc(F)c1F [Compound 83]
Reply: > 1000 nM

Task item: Entry Fc1ccccc1Cn1nc(-c2ncc(F)c(Nc3nnc(C(F)(F)F)s3)n2)cc1-c1ccon1 [Compound 11] please
Reply: > 1000 nM

Task item: Then what about the molecule O=C(O)Cc1c[nH]n(-c2nc(-c3cc(-c4ccon4)n(Cc4ccccc4F)n3)ncc2F)c1=O [Compound 39] ?
Reply: > 1000 nM

Task item: Same again, this time with O=C(O)C1Cn2c(nnc2C(F)(F)F)CN1c1nc(-c2cc(-c3ccon3)n(Cc3ccccc3F)n2)ncc1F (stereo not shown) [Compound 62]
Reply: > 1000 nM

Task item: Queued: NC(=O)Cc1c[nH]n(-c2nc(-c3cc(-c4ccon4)n(Cc4ccccc4F)n3)ncc2F)c1=O [Compound 40]
Reply: > 1000 nM

Task item: Now give it for CC(C)C(C)(N)CNc1nc(-c2cc(-c3ccon3)n(Cc3ccccc3F)n2)ncc1F (stereo not shown) [Compound 154] too.
Reply: 100 to 1000 nM

Task item: Repeat for the following molecule: CS(=O)(=O)NCCNc1cnc(-c2cc(-c3ccon3)n(Cc3ccccc3F)n2)nc1 [Compound 24]
Reply: 100 to 1000 nM

Task item: Param item: CC(=O)c1cc(-c2ncc(F)c(Nc3nnc(C(F)(F)F)s3)n2)nn1Cc1ccccc1F [Compound 126]
Reply: > 30000 nM
